- Test system: EKVX NSCLC
- Experiment Description: NCI tumour cell line growth inhibition, 48 h
For each entry below, report its TGI value.

Below are worked cases with known answers.
Compound	TGI
COc1ccccc1Cn1cc2c(c1)-c1oncc1CC2	> 94.2 µM
COc1ccc(CNc2nc(NCc3ccc(OC)cc3)nc(NC3CCCCC3)n2)cc1	8.5 µM
NC1=NS(=O)(=O)N=C(N)C1=Cc1ccc([N+](=O)[O-])o1	32.5 µM
Cc1ccc(-c2cc(-c3ccc(Cl)cc3)nc(/N=C3\C(=O)N(CN4CCCCC4)c4ccc(Cl)cc43)n2)cc1	> 100 µM
COc1cc(C2SCC(=O)N2NC(=O)c2ccc(NC(C)=O)cc2)cc(OC)c1OC (stereo not drawn)	> 100 µM
CC1OC(=O)N(CCCC=C2SCCCS2)C1=O (stereo not drawn)	> 100 µM
O=C(O)c1cc(Cl)cc(NC(=O)C(Cl)Cl)c1Cl	> 100 µM
N#Cc1c(=O)c2cccnc2n2c1[nH]c1ccccc12	> 100 µM

Each compound below has a reported value. Please supply its TGI.
1. CC(C)=CCN(N=O)c1ncnc2nc[nH]c12
2. COc1cc2ccn3c4cc(OC)c(OC)cc4cc3c2cc1OC
3. O=C1CCC2(CCC(=O)NC2=O)C(=O)N1
4. Cc1ccc(NCSc2ccc(Cl)cc2)cc1
5. c1ccc(SCCCC(Sc2ccccc2)Sc2ccccc2)cc1

1: > 100 µM; 2: > 100 µM; 3: > 100 µM; 4: > 100 µM; 5: > 100 µM

Give me TGI for each of these compounds, listed below.
1. CC(C)(C)n1cc(-c2ccnc(NCCNS(=O)(=O)c3ccc(Br)cc3)c2)c(-c2cccc(O)c2)n1
2. COc1ccc(N2C(=O)C3c4[nH]c5ccc(C)cc5c4C4CCC(C(C)C)CC4C3C2=O)cc1 (stereo not drawn)
3. COc1c(O)c(OC)c(C(=O)/C=C/c2ccccc2)c(O)c1OC
4. C=CCc1c(O)c2ccccc2[nH]c1=O
5. COc1cc(C2C(Cl)C(=O)N2c2ccc(Br)cc2)cc(I)c1O (stereo not drawn)

1. 6.88 µM
2. > 100 µM
3. > 100 µM
4. > 100 µM
5. > 100 µM

====

- Tested on: UACC-257 melanoma
- Experiment Description: NCI tumour cell line growth inhibition, 48 h
Value Type: TGI

Worked examples, 2 compounds total:
Compound	Target Under Test	TGI
O=C(OCc1ccccc1CN1CCOCC1)c1ccc(Br)cc1	UACC-257 melanoma	> 100 µM
COc1ccc([Se]c2ccc(OC)cc2OC)c(OC)c1	UACC-257 melanoma	> 100 µM

Provide TGI values for the following items, in order.
1. CN(C)c1ccc(C(=NNC(=O)c2cc3ccccc3[nH]2)c2ccc(N(C)C)cc2)cc1
2. O=C(Cc1nc2ccc(C(=O)c3ccccc3)cc2[nH]c1=O)C(=O)Nc1ccccc1[N+](=O)[O-]
3. CC(C)=CC(=O)O[C@@H]1CC(C)(C)CC2C3=CCC4[C@]56CC[C@](O)(OC5)C(C)(C)C6CC[C@@]4(C)C3(C)CC[C@]21C(=O)O (some centres undefined)
4. COc1ccc(CNc2nc(NCc3ccc(OC)cc3)nc(NC3CCCCC3)n2)cc1
5. O=C(O)c1cc(Cl)cc(NC(=O)C(Cl)Cl)c1Cl

> 100 µM
> 100 µM
> 100 µM
> 100 µM
> 100 µM

For each of the compounds below, note its TGI.
1. CC(C)(C)OC(=O)NC(Cc1ccccc1)C(=O)N[C@H]1c2ccsc2/C(=N/O)[C@H]1O (some centres undefined)
2. CO[C@H]1C=C[C@]23c4cc5c(cc4CN(CC2O)[C@@H]3C1)OCO5 (some centres undefined)
3. Oc1ccc(-c2c3c(nc4c2CCc2ccc(Br)cc2-4)-c2cc(Br)ccc2CC3)cc1
4. CN(C)c1ccc(-c2nc(-c3cc4c(ccc5ccccc54)oc3=O)cs2)cc1
5. CC(C)(CN1CCCCC1)C(=O)CC(SCCS(=O)(=O)O)c1ccc(Br)cc1 (centres undefined)
6. O=C1[C@H]2C(c3ccccc3)=NN(C(=O)c3ccccc3)[C@H]2C(=O)N1c1ccccc1
7. C/C(=N\NS(=O)(=O)c1ccc(C)cc1)c1ccc[n+]([O-])n1
8. O=c1oc2ccccc2cc1-c1nc2ccc([N+](=O)[O-])cc2o1

> 100 µM
42.8 µM
69.4 µM
> 100 µM
11.5 µM
> 100 µM
> 100 µM
> 100 µM

For the 4 compounds below, give their TGI values.
1. Cc1ccc(S(=O)(=O)Nn2c(-c3ccccc3)c(C#N)c(-c3ccc([N+](=O)[O-])cc3)c(C#N)c2=O)cc1
2. O=C(CCCCCCCCCCc1ccccc1)c1c(O)cccc1O
3. COc1ccc2c(c1O)[C@@]13C=C(O)C(=O)C=C1[C@@H](C2)N(C)CC3
4. CC1=NN(C(=O)CC(=O)Nc2cccc(Cl)c2)C(=O)C1N=Nc1ccc(S(N)(=O)=O)cc1 (centres undefined)

> 100 µM
38.8 µM
> 100 µM
> 100 µM

Take each entry in turn and give its TGI.
1. O=c1c2ccccc2nc(-c2ccccc2)n1NCC1(O)OCC(O)C(O)C1O (centres undefined)
2. COc1cc2oc3ccccc3c(=O)c2cc1CSc1ccccc1N
3. O=C1OC(c2ccc(O)cc2)(c2ccc(O)cc2)c2cccc3cccc1c23

> 100 µM
> 100 µM
27.8 µM

Could you tell me TGI for each of these compounds? They are listed below.
1. O=C1c2cc3c(cc2CC12Cc1cc4c(cc1C2)CCC4)CCC3
2. O=C1CCC2(CCC(=O)NC2=O)C(=O)N1
3. CC1=NN(c2nc(N)nc(/C(C#N)=C/c3ccncc3)n2)C(C)(C)C1
4. [N-]=[N+]=NC1(c2ccccc2)C(=O)Nc2ccccc2C1=O (centres undefined)

1: > 100 µM; 2: > 100 µM; 3: > 100 µM; 4: > 100 µM

Please give TGI for each item listed below.
1. O=C1c2cc(Cl)ccc2-n2c(noc2=O)C2CSCN12 (centres undefined)
2. Cc1cccc(NC(=O)CC(=O)N2N=C(N3c4ccccc4Sc4ccccc43)CC2c2ccccc2)c1 (centres undefined)
3. O=C1c2cc([N+](=O)[O-])ccc2NC2C(O)c3ccccc3N12 (centres undefined)

1: > 100 µM; 2: > 100 µM; 3: 55.3 µM

====

- Test system: SW-620 colon
- Experiment Description: NCI tumour cell line growth inhibition, 48 h
Task for the reader: assign each of the following molecules its reported GI50.

Molecule	GI50
O=C(/C=C/N1CCN(c2cccc(C(F)(F)F)c2)CC1)c1ccc(Cl)cc1Cl	38.8 µM

Provide reported GI50 for each item, in the same order as listed.
1. O=c1oc(-c2ccc(O)c(O)c2)cc2cc(O)cc(O)c12
2. COC(=O)c1cc(Nc2ccc(O)c3c2C(=O)c2c([N+](=O)[O-])ccc(O)c2C3=O)cc(C(=O)OC)c1
3. CN1C(=O)c2cc(Cl)nc3c(NC(=O)c4cccc(Cl)c4)c(Cl)c(NC(=O)c4cccc(Cl)c4)c1c23
4. Cc1nn(-c2ccccc2)c2c1C1C(=C(c3ccc(Cl)cc3)N2)C(=O)Nc2ccccc21 (stereo not given)

["35.2 µM", "3.3 µM", "1.78 µM", "4.16 µM"]

====

- System: OVCAR-5 ovarian
- Experiment Description: NCI tumour cell line growth inhibition, 48 h
Can you tell me GI50 for the items I'm about to list?

Please review the entries below; each comes with its answer.
Molecule	Target Under Test	GI50
CC(C)OP(=O)(CP(=O)(OC(C)C)OC(C)C)OC(C)C.[CH3][Sn]([Br])([Br])[Br]	OVCAR-5 ovarian	> 100 µM
COc1ccccc1Cn1cc2c(c1)-c1oncc1CC2	OVCAR-5 ovarian	0.756 µM
COC(=O)c1cc(Nc2ccc(O)c3c2C(=O)c2c([N+](=O)[O-])ccc(O)c2C3=O)cc(C(=O)OC)c1	OVCAR-5 ovarian	26 µM
CCOC(=O)c1[nH]c2c(c1C)-c1[nH]c(=O)c(S(=O)(=O)c3ccccc3)cc1SC2	OVCAR-5 ovarian	> 100 µM
C/C(=C(/c1ccc(O)cc1)c1ccc(OCCN2CCCC2)cc1)c1ccccc1	OVCAR-5 ovarian	7.99 µM
COc1ccc(C[C@H]2C[C@@H](O)[C@@H](C)C/C=C/Cc3cccc(O)c3C(=O)O2)cn1	OVCAR-5 ovarian	19 µM
O=C(/C=C/N1CCN(c2cccc(C(F)(F)F)c2)CC1)c1ccc(Cl)cc1Cl	OVCAR-5 ovarian	30.6 µM
CC(=O)[CH-]C(=O)c1ccccc1.CC(=O)[CH-]C(=O)c1ccccc1.[O]=[U+2]=[O]	OVCAR-5 ovarian	> 100 µM
Cc1ccc(NCSc2ccc(Cl)cc2)cc1	OVCAR-5 ovarian	> 100 µM
N#CC1c2ccccc2-c2ccccc2N1C(=O)c1ccccc1 (stereo unspecified)	OVCAR-5 ovarian	5.37 µM

// next entry
Determine from records and report GI50 for COc1ccc(C2=CC(c3cc(OC)c(OC)c(OC)c3)n3ncnc3N2)cc1 (stereo unspecified) 0.502 µM
